- target system: CDK7/cyclin H (Homo sapiens, UniProt P50613)
- Sequence (P50613 whole entry): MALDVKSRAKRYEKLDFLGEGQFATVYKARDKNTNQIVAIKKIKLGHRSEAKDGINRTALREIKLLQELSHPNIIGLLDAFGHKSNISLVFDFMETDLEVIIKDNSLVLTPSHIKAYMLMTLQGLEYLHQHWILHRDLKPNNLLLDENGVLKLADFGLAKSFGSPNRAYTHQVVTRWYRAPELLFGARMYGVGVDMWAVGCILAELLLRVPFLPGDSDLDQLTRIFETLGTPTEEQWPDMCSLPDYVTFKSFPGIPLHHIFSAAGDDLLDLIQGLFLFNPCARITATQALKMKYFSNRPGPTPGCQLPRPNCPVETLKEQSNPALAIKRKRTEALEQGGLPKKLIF
- Sequence (P51946 whole entry partner): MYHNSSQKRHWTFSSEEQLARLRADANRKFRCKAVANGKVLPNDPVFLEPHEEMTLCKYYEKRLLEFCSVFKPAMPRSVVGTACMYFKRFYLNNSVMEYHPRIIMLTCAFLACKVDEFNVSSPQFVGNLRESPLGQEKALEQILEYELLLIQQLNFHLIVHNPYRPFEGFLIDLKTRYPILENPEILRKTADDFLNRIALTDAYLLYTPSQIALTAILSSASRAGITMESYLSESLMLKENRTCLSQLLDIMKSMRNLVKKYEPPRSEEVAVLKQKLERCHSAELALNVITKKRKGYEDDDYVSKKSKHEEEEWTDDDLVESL
- protocol details: CDK 7 assay (CTD peptide substrate)
- Assay type: biochemical
- particulars: read-out: Kinase Inhibition pIC50 CDK7-cyclin H (converted)
- Procedure: Kinase assays. The compounds of the invention above were investigated for their ability to inhibit the enzymatic activity of various protein kinases (Table 2). This was achieved by measurement of incorporation of radioactive phosphate from ATP into appropriate polypeptide substrates. […] After washing 3 times with 75 mM aq orthophosphoric acid, plates were dried, scintillant added and incorporated radioactivity measured in a scintillation counter (TopCount, Packard Instruments, Pangbourne, Berks, UK). […]
YES if IC50 is below 2000 nM. NO if not; exact matches included in NO.

> print(dat)
                  compound.structure.string  label
1  CCNc1nc(C)c(-c2ccnc(Nc3cccc(S(=O)(=O)NCC)c3)n2)s1    YES
2  CNc1nc(C)c(-c2ccnc(Nc3cccc(S(=O)(=O)Nc4cccc(OC)c4)c3)n2)s1     NO
3  CCN(C)c1nc(C)c(-c2ccnc(Nc3ccc(N4CCOCC4)cc3)n2)s1     NO
4  COc1cc(Nc2nccc(-c3sc(N)nc3C)n2)cc(OC)c1OC    YES
5  COc1cc(Nc2nccc(-c3sc(C)nc3C)n2)cc(OC)c1OC     NO
6  Cc1nc(CO)sc1-c1ccnc(Nc2ccc(N3CCCCC3)cc2)n1     NO
7  CCNc1nc(C)c(-c2ccnc(Nc3ccc(S(N)(=O)=O)cc3)n2)s1    YES

###

Quick reference for log10 IC50 among some compounds
- target system: Aurora A kinase (Homo sapiens, UniProt O14965)
- Construct: purchased
- protocol details: Aurora-A (human) kinase assay (Kemptide substrate)
- Format: biochemical
- particulars: pIC50 is -log(IC50, M); 15 μM ATP; read-out: Kinase Inhibition pIC50 Aurora A kinase (converted)
measured quantity: log10 IC50 (log10 of the value in nM)

> print(dat)
                  compound.structure.string  measured
1  Cc1nc(N)sc1-c1ccnc(Nc2cccc(S(=O)(=O)NCCO)c2)n1      2.00
2  Cc1nc(NCCc2ccccc2)sc1-c1ccnc(Nc2ccc3c(c2)OCCO3)n1      3.10
3  CCNS(=O)(=O)c1ccc(Nc2nccc(-c3sc(C)nc3C)n2)cc1      2.50
4  CNc1nc(C)c(-c2ccnc(Nc3ccc(S(=O)(=O)NCc4ccccc4)cc3)n2)s1      3.40
5   CCNc1nc(C)c(-c2ccnc(Nc3cccc(Br)c3)n2)s1      1.30
6  CNS(=O)(=O)c1cccc(Nc2nccc(-c3sc(C)nc3C)n2)c1      3.10
7  CCc1cc(-c2nc(C)c(-c3ccnc(Nc4ccc(CNC(C)=O)cc4)n3)s2)ccn1      1.80
8               CCNc1nc(C)c(-c2ccnc(N)n2)s1      3.00
9  CC(=O)NCc1cccc(Nc2nccc(-c3sc(-c4cccnc4)nc3C)n2)c1      2.10

###

- target system: Aurora A kinase (Homo sapiens, UniProt O14965)
- Construct: purchased
- Sequence (O14965 1-403): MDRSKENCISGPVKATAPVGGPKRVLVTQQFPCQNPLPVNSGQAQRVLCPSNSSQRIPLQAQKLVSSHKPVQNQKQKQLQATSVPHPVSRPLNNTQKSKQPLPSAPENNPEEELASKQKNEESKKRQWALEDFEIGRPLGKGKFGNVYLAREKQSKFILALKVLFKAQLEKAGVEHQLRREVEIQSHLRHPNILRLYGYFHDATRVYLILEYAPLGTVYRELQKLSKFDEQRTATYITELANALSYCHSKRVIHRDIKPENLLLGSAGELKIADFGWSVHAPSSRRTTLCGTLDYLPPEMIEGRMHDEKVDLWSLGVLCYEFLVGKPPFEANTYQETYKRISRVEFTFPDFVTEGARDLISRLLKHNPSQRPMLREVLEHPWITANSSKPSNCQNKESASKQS
- protocol details: Aurora-A (human) kinase assay (Kemptide substrate)
- Format: biochemical
- particulars: pIC50 is -log(IC50, M); 15 μM ATP; read-out: Kinase Inhibition pIC50 Aurora A kinase (converted)
Recorded measurements of IC50, one per entry
measured quantity: IC50

> print(dat)
                                   compound                             target.system  measured
1  Cc1nc(N)sc1-c1ccnc(Nc2ccc(N3CCCCC3)cc2)n1 [Compound 195]  Aurora A kinase (Homo sapiens, UniProt O14965)   39.8 nM
2  COc1cc(Nc2nccc(-c3sc(C)nc3C)n2)ccc1N1CCOCC1 [Compound 173]  Aurora A kinase (Homo sapiens, UniProt O14965)   39.8 nM
3  COc1cc(Nc2nccc(-c3sc(-c4cccnc4)nc3C)n2)cc(OC)c1OC [Compound 154]  Aurora A kinase (Homo sapiens, UniProt O14965)   79.4 nM
4  Cc1nc(N(C)c2cc(Cl)cc(Cl)c2)sc1-c1ccnc(Nc2ccc(N3CCOCC3)cc2)n1 [Compound 123]  Aurora A kinase (Homo sapiens, UniProt O14965)   50.1 nM
